Tested on: Escherichia coli TOP10
Assay: shrunken log2 fold change of peptide-encoding DNA abundance (4.5 h post-induction vs induction); higher = less antimicrobial activity (less host growth inhibition)
Conditions: time post-induction: 4.5 h; library: site-saturation at positions 5, 18, 19, 20
Answer not satisfied if shrunken log2 fold change is under -0.2, and satisfied if it is -0.2 or more.

Use these answered entries as a reference point.
RRIRPRPPRLPRPRPRPVVEPRP; satisfied
RRIRQRPPRLPRPRPRPPGGPRP; satisfied
RRIRHRPPRLPRPRPRPIDWPRP; satisfied
RRIRMRPPRLPRPRPRPTWLPRP; satisfied

# input I'd appreciate it if you could say whether `RRIRTRPPRLPRPRPRPWFVPRP` has shrunken log2 fold change at least equal to -0.2.
# output not satisfied

###

Tested on: Escherichia coli TOP10
Assay: shrunken log2 fold change of peptide-encoding DNA abundance (4.5 h post-induction vs induction); higher = less antimicrobial activity (less host growth inhibition)
Conditions: time post-induction: 4.5 h; library: site-saturation at positions 5, 18, 19, 20
Answer rule not met if shrunken log2 fold change is under 0.08, and rule met if it is 0.08 or more.

Use these answered entries as a reference point.
RRIRDRPPRLPRPRPRPFMTPRP; rule not met
RRIRDRPPRLPRPRPRPYCVPRP; rule not met
RRIRGRPPRLPRPRPRPNDHPRP; rule met

# input I'd appreciate it if you could say whether `RRIRRRPPRLPRPRPRPGRVPRP` has shrunken log2 fold change at least equal to 0.08.
# output rule met

# input Consider next the sequence `RRIRFRPPRLPRPRPRPWQEPRP` in the same way.
# output rule not met

# input Consider next the sequence `RRIRGRPPRLPRPRPRPPGVPRP` in the same way.
# output rule met

# input Consider next the sequence `RRIRFRPPRLPRPRPRPVLWPRP` in the same way.
# output rule met

# input Consider next the sequence `RRIRFRPPRLPRPRPRPFRYPRP` in the same way.
# output rule not met

# input Consider next the sequence `RRIRNRPPRLPRPRPRPKMPPRP` in the same way.
# output rule met

# input Consider next the sequence `RRIRLRPPRLPRPRPRPFFMPRP` in the same way.
# output rule not met

# input Consider next the sequence `RRIRYRPPRLPRPRPRPFWKPRP` in the same way.
# output rule met

# input Consider next the sequence `RRIRMRPPRLPRPRPRPKQHPRP` in the same way.
# output rule met

# input Consider next the sequence `RRIRLRPPRLPRPRPRPSKHPRP` in the same way.
# output rule not met

# input Consider next the sequence `RRIRCRPPRLPRPRPRPFVRPRP` in the same way.
# output rule not met

# input Consider next the sequence `RRIRARPPRLPRPRPRPITWPRP` in the same way.
# output rule met

###

System: Escherichia coli TOP10
Test: shrunken log2 fold change of peptide-encoding DNA abundance (4.5 h post-induction vs induction); higher = less antimicrobial activity (less host growth inhibition)
Conditions: time post-induction: 4.5 h; library: site-saturation at positions 5, 18, 19, 20
Answer 0 (no) if shrunken log2 fold change is under -0.1, and 1 (yes) if it is -0.1 or more.

# input I'd appreciate it if you could say whether `RRIRRRPPRLPRPRPRPSMVPRP` has shrunken log2 fold change at least equal to -0.1.
# output 0 (no)

###

Tested on: Escherichia coli TOP10
Test: shrunken log2 fold change of peptide-encoding DNA abundance (4.5 h post-induction vs induction); higher = less antimicrobial activity (less host growth inhibition)
Settings: time post-induction: 4.5 h; library: site-saturation at positions 5, 18, 19, 20
Task for the reader: assign each of the following sequences its reported shrunken log2 fold change.
Numbers only.

Take a look at these entries with their results.
RRIRFRPPRLPRPRPRPEDLPRP; 0.143
RRIRERPPRLPRPRPRPTMDPRP; 0.0537
RRIRVRPPRLPRPRPRPHRIPRP; -0.0697
RRIRMRPPRLPRPRPRPLLTPRP; 2.33
RRIRGRPPRLPRPRPRPMLNPRP; 0.477

State recorded shrunken log2 fold change for all listed sequences.
1. RRIRTRPPRLPRPRPRPAFKPRP
2. RRIRYRPPRLPRPRPRPFQHPRP

# output
1: 0.143; 2: -0.281

State recorded shrunken log2 fold change for all listed sequences.
1. RRIRQRPPRLPRPRPRPHWSPRP
2. RRIRMRPPRLPRPRPRPEKRPRP

# output
1. -0.161
2. 0.0458

State recorded shrunken log2 fold change for all listed sequences.
1. RRIRARPPRLPRPRPRPGDTPRP
2. RRIRGRPPRLPRPRPRPTWNPRP
3. RRIRKRPPRLPRPRPRPTLYPRP
4. RRIRERPPRLPRPRPRPGHCPRP
5. RRIRIRPPRLPRPRPRPAEFPRP
6. RRIRMRPPRLPRPRPRPQYSPRP

# output
1: 0.264; 2: 0.359; 3: 0.0394; 4: 0.0591; 5: -0.0793; 6: 0.0353

State recorded shrunken log2 fold change for all listed sequences.
1. RRIRSRPPRLPRPRPRPHEQPRP
2. RRIRQRPPRLPRPRPRPIFLPRP
3. RRIRMRPPRLPRPRPRPWIFPRP
4. RRIRTRPPRLPRPRPRPVMGPRP
5. RRIRDRPPRLPRPRPRPWNSPRP
6. RRIRLRPPRLPRPRPRPPPYPRP
7. RRIRCRPPRLPRPRPRPTWNPRP
8. RRIRERPPRLPRPRPRPPTGPRP

# output
1. 0.128
2. 0.805
3. 0.0735
4. -0.0279
5. -0.237
6. 0.388
7. 0.128
8. 0.161

State recorded shrunken log2 fold change for all listed sequences.
1. RRIRRRPPRLPRPRPRPINNPRP
2. RRIRVRPPRLPRPRPRPHTVPRP
3. RRIRWRPPRLPRPRPRPSFWPRP
4. RRIRMRPPRLPRPRPRPPQYPRP

# output
-0.407
-0.448
0.372
0.465

State recorded shrunken log2 fold change for all listed sequences.
1. RRIRSRPPRLPRPRPRPHWHPRP
2. RRIRTRPPRLPRPRPRPEGQPRP
3. RRIRCRPPRLPRPRPRPHPNPRP
4. RRIRYRPPRLPRPRPRPPTTPRP
5. RRIRFRPPRLPRPRPRPPQMPRP

# output
[-0.124, 0.0344, -0.186, -0.165, 0.333]

###

Test system: Escherichia coli TOP10
Assay: shrunken log2 fold change of peptide-encoding DNA abundance (4.5 h post-induction vs induction); higher = less antimicrobial activity (less host growth inhibition)
Conditions: time post-induction: 4.5 h; library: site-saturation at positions 5, 18, 19, 20
Task for the reader: assign each of the following sequences its reported shrunken log2 fold change.
Numbers only.

Take a look at these entries with their results.
RRIRSRPPRLPRPRPRPEQQPRP; 0.0303
RRIRARPPRLPRPRPRPFIGPRP; -0.457
RRIRERPPRLPRPRPRPWVWPRP; 0.0922
RRIRRRPPRLPRPRPRPMGPPRP; 0.135
RRIRFRPPRLPRPRPRPAGYPRP; 0.00702
RRIRDRPPRLPRPRPRPTDLPRP; -0.0718
RRIRERPPRLPRPRPRPRNVPRP; -0.00139
RRIRERPPRLPRPRPRPPFCPRP; 0.117

State recorded shrunken log2 fold change for all listed sequences.
1. RRIRFRPPRLPRPRPRPSAVPRP
2. RRIRSRPPRLPRPRPRPPFIPRP

# output
1. -0.119
2. -0.252

State recorded shrunken log2 fold change for all listed sequences.
1. RRIRARPPRLPRPRPRPNCIPRP
2. RRIRGRPPRLPRPRPRPNMSPRP
3. RRIRCRPPRLPRPRPRPPYCPRP
4. RRIRYRPPRLPRPRPRPCPAPRP
5. RRIRERPPRLPRPRPRPDEAPRP
6. RRIRHRPPRLPRPRPRPAPHPRP
7. RRIRIRPPRLPRPRPRPVQDPRP

# output
[-0.113, 0.161, -0.365, -0.772, 0.323, 0.223, -1.09]

###

Task for the reader: assign each of the following sequences its reported shrunken log2 fold change.
System: Escherichia coli TOP10;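 further: peptides expressed intracellularly from a pBAD plasmid library in pooled LB shake-flask culture, induced with 0.3% L-arabinose, DNA abundance read by NGS, three biological replicates, DESeq2 with apeglm shrinkage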
Assay: shrunken log2 fold change of peptide-encoding DNA abundance (4.5 h post-induction vs induction); higher = less antimicrobial activity (less host growth inhibition)
Conditions: time post-induction: 4.5 h; library: site-saturation at positions 5, 18, 19, 20

Take a look at these entries with their results.
RRIRDRPPRLPRPRPRPPCMPRP; -0.317
RRIRTRPPRLPRPRPRPMIHPRP; -0.609
RRIRVRPPRLPRPRPRPMEWPRP; -0.125
RRIRFRPPRLPRPRPRPNREPRP; -0.181
RRIRQRPPRLPRPRPRPKISPRP; -0.144

State recorded shrunken log2 fold change for all listed sequences.
1. RRIRRRPPRLPRPRPRPKEKPRP
2. RRIRHRPPRLPRPRPRPEMDPRP
3. RRIRLRPPRLPRPRPRPYMAPRP

# output
1. -0.00936
2. 0.015
3. -0.608
